SYSTEM_UNDER_TEST: Methylcytosine dioxygenase TET1 (Homo sapiens) (UniProt Q8NFU7)
Sequence (Q8NFU7 whole entry, the tested form may be a part): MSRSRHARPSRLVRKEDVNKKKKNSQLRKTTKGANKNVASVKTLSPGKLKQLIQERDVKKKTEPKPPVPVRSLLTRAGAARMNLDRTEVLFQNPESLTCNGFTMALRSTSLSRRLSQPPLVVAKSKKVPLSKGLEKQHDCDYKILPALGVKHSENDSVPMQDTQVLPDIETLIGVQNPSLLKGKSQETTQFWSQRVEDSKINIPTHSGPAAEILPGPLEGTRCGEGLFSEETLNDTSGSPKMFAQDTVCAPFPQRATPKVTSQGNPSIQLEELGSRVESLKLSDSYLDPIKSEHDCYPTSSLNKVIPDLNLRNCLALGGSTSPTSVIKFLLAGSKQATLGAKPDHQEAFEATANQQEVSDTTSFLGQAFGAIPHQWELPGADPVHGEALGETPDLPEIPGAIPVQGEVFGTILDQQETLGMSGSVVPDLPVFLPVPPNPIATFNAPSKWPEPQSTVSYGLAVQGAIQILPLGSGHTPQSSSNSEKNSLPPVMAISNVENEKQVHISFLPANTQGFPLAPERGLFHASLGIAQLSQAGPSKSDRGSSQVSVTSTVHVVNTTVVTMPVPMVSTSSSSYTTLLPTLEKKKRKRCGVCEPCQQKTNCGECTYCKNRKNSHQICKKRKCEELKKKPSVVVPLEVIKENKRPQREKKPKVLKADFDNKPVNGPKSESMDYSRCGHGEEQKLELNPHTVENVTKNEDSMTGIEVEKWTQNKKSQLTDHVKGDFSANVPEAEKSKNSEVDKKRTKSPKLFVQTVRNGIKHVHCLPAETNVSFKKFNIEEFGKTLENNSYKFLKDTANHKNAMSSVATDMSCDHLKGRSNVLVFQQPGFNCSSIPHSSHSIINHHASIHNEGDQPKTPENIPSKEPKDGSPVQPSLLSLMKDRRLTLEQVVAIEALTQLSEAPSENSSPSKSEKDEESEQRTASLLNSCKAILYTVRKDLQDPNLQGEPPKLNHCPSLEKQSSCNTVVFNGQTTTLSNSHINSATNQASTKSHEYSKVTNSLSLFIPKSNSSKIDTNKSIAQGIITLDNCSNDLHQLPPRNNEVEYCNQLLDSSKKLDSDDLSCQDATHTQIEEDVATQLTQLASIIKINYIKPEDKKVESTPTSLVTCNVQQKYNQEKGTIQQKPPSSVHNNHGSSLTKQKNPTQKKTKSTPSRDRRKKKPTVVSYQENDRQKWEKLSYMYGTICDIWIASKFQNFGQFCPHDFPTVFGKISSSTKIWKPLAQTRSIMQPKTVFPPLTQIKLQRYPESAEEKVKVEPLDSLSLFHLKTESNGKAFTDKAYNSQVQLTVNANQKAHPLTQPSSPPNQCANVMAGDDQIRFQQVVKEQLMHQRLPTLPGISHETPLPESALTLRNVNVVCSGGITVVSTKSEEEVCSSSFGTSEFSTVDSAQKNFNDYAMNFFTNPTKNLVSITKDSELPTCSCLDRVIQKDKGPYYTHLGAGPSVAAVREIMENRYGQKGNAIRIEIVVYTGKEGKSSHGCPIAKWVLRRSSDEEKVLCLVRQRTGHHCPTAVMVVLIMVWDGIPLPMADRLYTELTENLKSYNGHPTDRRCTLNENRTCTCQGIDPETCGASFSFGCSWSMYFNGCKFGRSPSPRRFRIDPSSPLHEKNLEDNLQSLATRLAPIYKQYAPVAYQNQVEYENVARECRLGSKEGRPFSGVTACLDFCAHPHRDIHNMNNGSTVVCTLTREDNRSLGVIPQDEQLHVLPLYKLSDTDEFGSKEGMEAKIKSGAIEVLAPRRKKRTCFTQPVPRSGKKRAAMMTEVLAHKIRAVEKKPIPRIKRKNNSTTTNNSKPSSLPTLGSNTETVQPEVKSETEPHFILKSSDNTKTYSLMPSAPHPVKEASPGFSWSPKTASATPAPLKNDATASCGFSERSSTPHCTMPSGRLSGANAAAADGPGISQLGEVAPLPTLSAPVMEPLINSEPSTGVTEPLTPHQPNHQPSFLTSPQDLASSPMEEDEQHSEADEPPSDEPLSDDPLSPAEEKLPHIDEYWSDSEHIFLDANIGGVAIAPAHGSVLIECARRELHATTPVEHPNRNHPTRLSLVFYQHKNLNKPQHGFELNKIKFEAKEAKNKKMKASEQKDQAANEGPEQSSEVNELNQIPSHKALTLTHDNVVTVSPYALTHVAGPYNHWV
TEST_SUMMARY: Inhibition of recombinant human N-terminal FLAG-tagged TET1 (1418 to 2136 residues) expressed in baculovirus infected sf9 cells assessed as reduction in oxidation of methylated dsDNA at 100 uM after 2 hrs by chemiluminescence assay relative to control
Activity calls are given as the source filed them. The rule behind the calls is not given here.
Answer with one of the outcomes given here: active, inactive

>>> print(df.to_string())
                              mol_smiles     class
0       Nc1nc(=O)n(-c2ccccc2)cc1C(F)(F)F  inactive
1    Nc1nc(=O)n(-c2ccccc2-c2ccccc2)cc1Cl  inactive
2               Nc1ccn(-c2ccccc2)c(=O)n1  inactive
3  Nc1nc(=O)n(-c2cccc(-c3ccccc3)c2)cc1Cl    active

Here is the next item to consider.
Exercise: Please indicate how the test categorized "Nc1nc(=O)n(-c2ccc(-c3ccccc3)cc2)cc1Cl" .
Solution: inactive

These data points were gathered from ChEMBL document CHEMBL4330181.
